# assay.system: hACAT-1 (Homo sapiens, UniProt P35610)
# Construct: microsomal fraction used
# Sequence (P35610 whole entry): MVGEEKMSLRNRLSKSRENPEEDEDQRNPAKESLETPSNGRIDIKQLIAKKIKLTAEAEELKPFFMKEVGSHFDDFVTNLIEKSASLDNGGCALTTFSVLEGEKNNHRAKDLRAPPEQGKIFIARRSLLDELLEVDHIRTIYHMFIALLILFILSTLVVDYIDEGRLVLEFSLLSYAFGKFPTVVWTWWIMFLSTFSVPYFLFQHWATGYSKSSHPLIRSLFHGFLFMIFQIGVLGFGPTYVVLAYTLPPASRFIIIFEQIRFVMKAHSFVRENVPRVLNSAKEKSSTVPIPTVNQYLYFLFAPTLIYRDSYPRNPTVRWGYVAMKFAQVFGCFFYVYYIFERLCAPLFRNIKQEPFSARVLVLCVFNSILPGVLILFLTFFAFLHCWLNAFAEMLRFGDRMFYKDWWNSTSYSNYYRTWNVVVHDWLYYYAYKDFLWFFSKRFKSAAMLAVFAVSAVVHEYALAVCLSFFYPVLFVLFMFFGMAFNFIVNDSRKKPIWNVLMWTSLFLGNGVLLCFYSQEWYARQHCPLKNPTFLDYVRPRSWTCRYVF
# assay: ACAT activity, microsomal fraction of Hi5 cells over-expressing hACAT-1
# reported pIC50; entries follow
Just the number, please; pIC50 means minus log10 of the concentration in mol/L.

C=C[C@@]1(C)CC[C@H]2C(=CC[C@@H]3[C@]2(C)CCC[C@@]3(C)C(=O)O)C1 [Isopimaric acid, isopimaric acid]
3.64

Exercise: Recall the reported pIC50 of CC(C)c1ccc2c(c1)CC[C@H]1[C@](C)(CO)CCC[C@]21C [Dehydroabietinol, dehydroabietinol] on hACAT-1 (Homo sapiens, UniProt P35610) and write it down.
Solution: 4.39

Exercise: Recall the reported pIC50 of COC(OC)[C@]1(C)CCC[C@]2(C)c3cc(O)c(C(C)C)cc3CCC12 (some centres unmarked) [R = dimethoxymethyl] on hACAT-1 (Homo sapiens, UniProt P35610) and write it down.
Solution: 4.01

Exercise: Recall the reported pIC50 of COC(=O)[C@]1(C)CCC[C@]2(C)c3cc(O)c(C(C)C)cc3CCC12 (some centres unmarked) [R = methylester] on hACAT-1 (Homo sapiens, UniProt P35610) and write it down.
Solution: 3.89

Exercise: Recall the reported pIC50 of C=C1CCC2[C@](C)(CO)CCC[C@]2(C)[C@H]1CC/C(C)=C\CO (some centres unmarked) [Kayadiol, kayadiol] on hACAT-1 (Homo sapiens, UniProt P35610) and write it down.
Solution: 3.92

Exercise: Recall the reported pIC50 of CC(C)c1cc2c(cc1O)[C@@]1(C)CCCC(C)(C)[C@@H]1CC2 [R = methyl, ferruginol] on hACAT-1 (Homo sapiens, UniProt P35610) and write it down.
Solution: 4.34

Exercise: Recall the reported pIC50 of CC(C)c1cc2c(cc1O)[C@@]1(C)CCC[C@@](C)(CO)C1CC2 (some centres unmarked) [R = hydroxymethyl, 18-hydroxyferruginol] on hACAT-1 (Homo sapiens, UniProt P35610) and write it down.
Solution: 4.13

Exercise: Recall the reported pIC50 of CC(C)c1cc2c(cc1O)[C@@]1(C)CCC[C@@](C)(C=O)C1CC2 (some centres unmarked) [R = aldehyde, 18-oxoferruginol] on hACAT-1 (Homo sapiens, UniProt P35610) and write it down.
Solution: 4.43
